Data origin: ChEMBL document CHEMBL3994677

tested-system: UniProtKB Q9HBA0
endpoint-name: IC50
Please state the number and follow it with the unit.

Q: Which value of IC50 has been reported for Cc1c(C(=O)Nc2cccc(C(F)(F)F)c2)cc(-c2ccccc2)n1CCCN1CCOCC1 in the records?
Ans: 48 nM

###

tested-system: Transient receptor potential cation channel subfamily V member 4 (Homo sapiens)
Sequence (Q9HBA0 whole entry): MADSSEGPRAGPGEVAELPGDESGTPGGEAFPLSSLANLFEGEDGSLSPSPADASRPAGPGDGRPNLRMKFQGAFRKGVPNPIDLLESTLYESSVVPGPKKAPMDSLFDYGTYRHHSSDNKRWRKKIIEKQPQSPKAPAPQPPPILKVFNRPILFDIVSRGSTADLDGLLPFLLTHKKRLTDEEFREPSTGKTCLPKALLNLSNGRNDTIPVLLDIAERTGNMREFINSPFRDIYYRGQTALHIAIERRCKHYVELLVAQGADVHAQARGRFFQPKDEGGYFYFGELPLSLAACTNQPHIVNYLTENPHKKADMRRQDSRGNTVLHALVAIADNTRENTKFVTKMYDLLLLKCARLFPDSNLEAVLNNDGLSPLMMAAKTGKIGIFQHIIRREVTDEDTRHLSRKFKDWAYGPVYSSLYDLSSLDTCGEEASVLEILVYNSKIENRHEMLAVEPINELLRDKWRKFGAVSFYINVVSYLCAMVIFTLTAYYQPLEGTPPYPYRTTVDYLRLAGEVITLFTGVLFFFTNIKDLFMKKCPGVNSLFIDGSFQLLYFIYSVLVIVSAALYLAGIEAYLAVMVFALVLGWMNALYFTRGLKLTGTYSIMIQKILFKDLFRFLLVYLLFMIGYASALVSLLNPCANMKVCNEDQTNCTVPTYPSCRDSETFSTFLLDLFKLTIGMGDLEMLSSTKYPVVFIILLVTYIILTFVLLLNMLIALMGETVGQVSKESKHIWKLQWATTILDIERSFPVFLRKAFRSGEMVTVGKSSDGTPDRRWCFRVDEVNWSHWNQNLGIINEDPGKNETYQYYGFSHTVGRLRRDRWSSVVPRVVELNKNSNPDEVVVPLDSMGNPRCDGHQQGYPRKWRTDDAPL
assay-method-text: Antagonist activity at human TRPV4 expressed in HEK293 cells assessed as inhibition of GSK634775A-induced calcium influx preincubated for 10 mins followed by GSK634775A addition by […] dye based FLIPR assay
Assay type: cell-based
Each item that follows carries a reported pIC50.
When answering, recall that pIC50 equals minus log10 of the concentration in mol/L, and write that number alone.

Solved entries (count: 3):
[[record]]
compound_structure = "CCOc1ccc2c(C(=O)NC3(c4ccccc4)CC3)c(CN3CCC(N4CCCCC4)CC3)c(-c3cccc(C(F)(F)F)c3)nc2c1"
data_value = 7.10

[[record]]
compound_structure = "CC(C)[C@H](NC(=O)c1c(CN2CCC(N3CCCCC3)CC2)c(-c2cccc(C(F)(F)F)c2)nc2ccccc12)c1ccccc1"
data_value = 6.89

[[record]]
compound_structure = "CC[C@H](NC(=O)c1c(CN2CCC(N3CCCCC3)CC2)c(-c2cccc(C(F)(F)F)c2)nc2ccccc12)c1ccccc1"
data_value = 6.80


Q: Entry C[C@H](NC(=O)c1c(CN2CCC(N3CCCCC3)CC2)c(-c2cccc(C(F)(F)F)c2)nc2ccccc12)c1ccccc1 has what pIC50?
Ans: 7.10

Q: Request: O=C(N[C@@H](c1ccccc1)C(F)(F)F)c1c(CN2CCC(N3CCCCC3)CC2)c(-c2cccc(C(F)(F)F)c2)nc2ccccc12
Ans: 7.00
